Source listed as paper PMC6467756.

Target: Recombinant human glyoxalase I (GLO1) (Homo sapiens, UniProt Q04760)
Sequence (Q04760 2-184 limits assumed): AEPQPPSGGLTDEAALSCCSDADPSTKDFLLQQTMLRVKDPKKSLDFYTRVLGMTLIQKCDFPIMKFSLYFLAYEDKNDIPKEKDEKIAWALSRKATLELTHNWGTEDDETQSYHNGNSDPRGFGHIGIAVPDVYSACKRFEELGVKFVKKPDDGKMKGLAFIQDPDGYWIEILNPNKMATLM
Assay: Human Glyoxalase 1 enzyme assay
assay_endpoint: IC50

molecule	assay_value
O=c1cc(-c2ccccc2)cc(-c2ccccc2)n1O [Chugai-1, 1-hydroxy-4,6-diphenylpyridin-2(1H)-one, reference compound]	1900 nM
